Assay: Solubility study of Form A in DI water and 20 mM phosphate buffer (pH 3.2) (Table 37)
Assay type: physicochemical
Conditions: pH 3.2, aqueous buffer, thermodynamic from solid; 20 mM phosphate buffer, room temperature, 1 week; read-out: Solubility mg/mL (1 week)
Experimental: The solubility measurement of Compound 1 Form A was performed in DI water (Milli-Q) and in 20 mM phosphate buffer (pH 3.2), see Table 37. Each vial was charged with 50-55 mg of Compound 1 and 1 mL of the corresponding solvent. Both slurries were stirred at room temperature for approximately 19 hours. An aliquot (0.2 mL) was taken from each sample for the solubility determination and XRPD test. […] The pH of the supernatant liquid and solubility were determined following the 1 week slurry.
ASSAY ENDPOINT: solubility at 1 week

Exam item: Consider the molecule shown here: CCS(=O)(=O)c1cccc(-c2cc(C(=O)NC3CCN(C)CC3)c(C)c3[nH]c4ncc(C)cc4c23)c1 [Form A] What is its recorded solubility at 1 week?
Marked response: 4.1 mg/mL

* * *

Assay: Solubility study of Form A in DI water and 20 mM phosphate buffer (pH 3.2) (Table 37)
Type: physicochemical
Conditions: thermodynamic from solid; DI water, initial pH 8.1, room temperature, 1 day; read-out: Solubility mg/mL (1 day)
ASSAY ENDPOINT: solubility at 1 day (mg/mL)
Just the number please, in mg/mL, no unit attached.

Exam item: Consider the compound shown here: CCS(=O)(=O)c1cccc(-c2cc(C(=O)NC3CCN(C)CC3)c(C)c3[nH]c4ncc(C)cc4c23)c1 [Form A] What is its recorded solubility at 1 day?
Marked response: 3.1

* * *

Assay: Solubility study of Form A in DI water and 20 mM phosphate buffer (pH 3.2) (Table 37)
Format: physicochemical
Conditions: pH 8.1, thermodynamic from solid; DI water, room temperature, 1 week; read-out: Solubility mg/mL (1 week)
ASSAY ENDPOINT: solubility at 1 week (mg/mL)
Just the number please, in mg/mL, no unit attached.

Exam item: Consider the compound shown here: CCS(=O)(=O)c1cccc(-c2cc(C(=O)NC3CCN(C)CC3)c(C)c3[nH]c4ncc(C)cc4c23)c1 [Form A] What is its recorded solubility at 1 week?
Marked response: 4.3

* * *

Test: Solvent screen: solubility of Compound 1 in various solvents (Table 16)
Type: physicochemical
Settings: 55 °C, thermodynamic from solid; solvent water; Temp 55; Soluble No; read-out: Conc.
ASSAY ENDPOINT: solubility

Exam item: Consider the compound shown here: CCS(=O)(=O)c1cccc(-c2cc(C(=O)NC3CCN(C)CC3)c(C)c3[nH]c4ncc(C)cc4c23)c1.Cl [Compound 1] What is its recorded solubility?
Marked response: ≤ 600 µg/mL
